The values you see were collected from ChEMBL document CHEMBL1156234.

target: GABA-A receptor; alpha-1/beta-2/gamma-2 (Homo sapiens, UniProt P14867+P18507+P47870); experiment: Antagonist activity at human GABAA alpha-1-beta-2-gamma-2 receptor expressed in mouse tsA201 cells by FMP red assay; assay type: functional, cell-based
Sequence (P14867 whole entry): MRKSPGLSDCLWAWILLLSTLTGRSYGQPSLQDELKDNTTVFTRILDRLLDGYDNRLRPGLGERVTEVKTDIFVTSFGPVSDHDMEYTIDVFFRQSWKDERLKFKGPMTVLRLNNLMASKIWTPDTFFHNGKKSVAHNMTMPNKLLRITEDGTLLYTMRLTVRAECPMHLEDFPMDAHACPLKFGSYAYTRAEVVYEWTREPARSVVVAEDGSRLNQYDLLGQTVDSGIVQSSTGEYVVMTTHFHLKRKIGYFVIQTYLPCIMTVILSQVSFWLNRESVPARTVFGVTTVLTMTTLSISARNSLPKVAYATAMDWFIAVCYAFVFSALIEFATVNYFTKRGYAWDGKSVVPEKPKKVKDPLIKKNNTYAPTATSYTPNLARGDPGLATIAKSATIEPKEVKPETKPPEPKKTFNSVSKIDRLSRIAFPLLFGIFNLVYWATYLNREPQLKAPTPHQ
Sequence (P47870 whole entry): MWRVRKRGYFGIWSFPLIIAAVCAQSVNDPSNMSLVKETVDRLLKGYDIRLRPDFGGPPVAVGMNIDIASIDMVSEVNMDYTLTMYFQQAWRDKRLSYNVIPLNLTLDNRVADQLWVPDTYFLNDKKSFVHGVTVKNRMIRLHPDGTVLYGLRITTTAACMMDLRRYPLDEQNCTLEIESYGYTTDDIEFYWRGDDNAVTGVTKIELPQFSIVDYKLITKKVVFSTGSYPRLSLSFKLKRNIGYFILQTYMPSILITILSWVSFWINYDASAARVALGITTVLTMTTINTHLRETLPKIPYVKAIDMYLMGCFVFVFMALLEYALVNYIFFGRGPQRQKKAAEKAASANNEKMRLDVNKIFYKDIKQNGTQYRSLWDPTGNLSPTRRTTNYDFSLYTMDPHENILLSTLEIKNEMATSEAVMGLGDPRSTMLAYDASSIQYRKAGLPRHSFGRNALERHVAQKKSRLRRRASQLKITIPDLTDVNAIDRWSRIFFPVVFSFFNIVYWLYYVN
Sequence (P18507 whole entry): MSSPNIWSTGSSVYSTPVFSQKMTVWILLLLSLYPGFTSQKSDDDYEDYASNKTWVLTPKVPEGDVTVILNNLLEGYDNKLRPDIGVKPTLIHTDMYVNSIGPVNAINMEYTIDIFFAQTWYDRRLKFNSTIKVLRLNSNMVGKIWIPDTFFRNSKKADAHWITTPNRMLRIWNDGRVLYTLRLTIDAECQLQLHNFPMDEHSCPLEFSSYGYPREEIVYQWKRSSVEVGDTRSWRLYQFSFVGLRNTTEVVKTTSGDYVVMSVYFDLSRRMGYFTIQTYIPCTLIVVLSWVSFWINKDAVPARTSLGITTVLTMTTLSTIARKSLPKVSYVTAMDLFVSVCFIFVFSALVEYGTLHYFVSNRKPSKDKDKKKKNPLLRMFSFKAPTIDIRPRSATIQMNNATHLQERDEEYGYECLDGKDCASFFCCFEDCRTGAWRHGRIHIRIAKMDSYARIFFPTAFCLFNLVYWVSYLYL
VALUE KIND: pIC50
Kindly note that pIC50 refers to -log10 of the concentration in mol/L and answer with the value alone.

Here is how some compounds turned out for pIC50.
Query string: What measured pIC50 goes with "Cl.On1cc(C2CCNCC2)c(-c2cccc(-c3ccccc3)c2)n1" ?
Result string: 6.68

Query string: State the recorded pIC50 for this entry: "Oc1noc(C2CCNCC2)c1Cc1ccc2ccccc2c1"
Result string: 5.74

Query string: // query pIC50 value for entry "Oc1noc(C2CCNCC2)c1-c1cccc(-c2ccccc2)c1"
Result string: 7.11

Query string: Given "Cl.On1cc(C2CCNCC2)c(Cc2ccccc2)n1" , state its recorded pIC50.
Result string: 5.08

Query string: Looking for the measured pIC50 of "Br.On1cc(C2CCNCC2)c(Cc2ccc3ccccc3c2)n1" , can you help?
Result string: 6.77

Query string: What pIC50 value was documented for this compound, "Cc1cccc(-c2nn(O)cc2C2CCNCC2)c1.Cl" ?
Result string: 5.72

Query string: Sample "Br.Cc1nn(O)cc1C1CCNCC1" — what was its pIC50?
Result string: 4.18

Query string: Recorded pIC50 for "Cc1ccccc1-c1nn(O)cc1C1CCNCC1.Cl" , please?
Result string: 5.59

Others:
Query string: Value lookup for pIC50; key = "Cl.On1ncc(C2CCNCC2)c1Cc1ccc2ccccc2c1"
Result string: 6.10

Query string: Tell me the measured pIC50 of "Br.On1cc(C2CCNCC2)c(-c2ccccc2)n1" , please.
Result string: 5.72

Query string: Could you share which pIC50 value was measured for "Cl.On1ncc(C2CCNCC2)c1Cc1ccc2ccccc2c1Br" ?
Result string: 6.32

Query string: May I ask what pIC50 has been recorded for "Cl.On1nc(-c2ccccc2)c(C2CCNCC2)c1Cc1ccc2ccccc2c1" ?
Result string: 5.49
